The following compounds are listed with their measured Ki values.
Target protein (sequence): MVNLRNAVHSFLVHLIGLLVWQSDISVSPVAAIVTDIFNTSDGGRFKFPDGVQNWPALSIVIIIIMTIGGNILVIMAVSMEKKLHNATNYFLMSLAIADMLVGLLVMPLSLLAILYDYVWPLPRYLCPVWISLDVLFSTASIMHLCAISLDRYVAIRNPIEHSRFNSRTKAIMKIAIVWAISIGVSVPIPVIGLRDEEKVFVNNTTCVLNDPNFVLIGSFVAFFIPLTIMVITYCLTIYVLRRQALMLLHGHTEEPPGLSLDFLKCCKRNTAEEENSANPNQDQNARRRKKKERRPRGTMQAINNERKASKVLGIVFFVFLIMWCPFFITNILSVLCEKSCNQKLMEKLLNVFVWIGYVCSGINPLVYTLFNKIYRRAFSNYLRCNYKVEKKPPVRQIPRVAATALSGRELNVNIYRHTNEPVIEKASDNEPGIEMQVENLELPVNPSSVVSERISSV
property: Ki (nM)

INSERT INTO assay_data (structureassmiles, property, obsvalue) VALUES
  ('CCC(=O)Nc1ccc2[nH]cc(C3CCN(C)CC3)c2n1', 'Ki', 310),
  ('CN1CCC(c2c[nH]c3ccc(NC(=O)c4ccc(F)cc4)nc23)CC1', 'Ki', 1900);
